# Tested on: SW-620 colon
# Assay notes: NCI tumour cell line growth inhibition, 48 h; in the data active means GI50 below about 0.43 µM; inactive means the rest
Returns: one label drawn from YES (active), NO (inactive)

CCOC(=O)c1ccc2c(c1)[n+](=O)c(C(=O)C1CCCS1)c(C(F)(F)F)n2[O-] (centres undefined) : YES
O=[N+]([O-])c1ccc(C(Br)c2ccc([N+](=O)[O-])cc2)cc1 : NO
O=C(NC(=S)Nc1ccccn1)c1ccccc1 : NO

Attention now turns to another entry.
I'd appreciate the recorded outcome for O=C1c2ccccc2C(=O)c2c1c(=O)c(=O)c1ccccc1c(=O)n2Cc1ccccc1 from this test.
NO

* * *

# Test system: NCI/ADR-RES ovarian
# Assay notes: NCI tumour cell line growth inhibition, 48 h; in the data active = GI50 below about 0.43 µM; inactive = the rest
Returns: one label drawn from true (1) = active, false (0) = inactive

Recorded results for 3 compounds are shown here.
CC1OC(OC2C(O)C(OCCc3ccc(O)c(O)c3)OC(CO)C2OC(=O)/C=C/c2ccc(O)c(O)c2)C(O)C(O)C1OC1OCC(O)(CO)C1O (configuration not stated) : false (0)
COc1ccc(-c2c(-c3cc(OC)c(OC)c(OC)c3)nc3sc(C4CC4)nn23)cc1OC : false (0)
COc1cc(/C=C/C(=O)Nc2ccc3c(c2)/C(=C\c2cccn2C)C(=O)N3)cc(OC)c1OC : false (0)

Attention now turns to another entry.
I'd appreciate the recorded outcome for O=C1c2ccccc2C(=O)c2c1c(=O)c(=O)c1ccccc1c(=O)n2Cc1ccccc1 from this test.
false (0)

* * *

# Tested on: HOP-92 NSCLC
# Assay notes: NCI tumour cell line growth inhibition, 48 h
Value kind: GI50

CCOC(=O)c1ccc2c(c1)[n+](=O)c(C(=O)C1CCCS1)c(C(F)(F)F)n2[O-] (stereo unspecified) : 208 nM

Turning now to a further compound:
Which measured GI50 value corresponds to COc1ccc(-c2c(-c3cc(OC)c(OC)c(OC)c3)nc3sc(C4CC4)nn23)cc1OC ?
580 nM

* * *

# System: HOP-92 NSCLC
# Assay notes: NCI tumour cell line growth inhibition, 48 h
Value kind: GI50

Worked examples follow.
CN1CCCC1c1cccnc1.O=C(O)c1ccccc1O.O=C([O-])c1ccccc1[OH2+].O=C([O-])c1ccccc1[OH2+].O=C([O-])c1ccccc1[OH2+].[Cu+2] (centres undefined) : > 100 µM
C=C1c2c(C)nn(-c3ccc(OC)cc3)c2N(C)C23C[C@@H]1C1(C)c4c(C)nn(-c5ccc(OC)cc5)c4N(C)C(C)(C[C@H]12)C3 (some centres undefined) : 1.18 µM
COc1ccc2c(c1)oc1c(C)c3c(c(C)c12)C(=O)N(N)C3=O : > 100 µM
NS(=O)(=O)c1ccc(N=Cc2c(O)[nH]c3ccc4ncsc4c23)cc1 : 1.72 µM
C[CH2][Sn]([CH2]C)([O]C(=O)c1cccc(OC)c1)[O][Sn]([CH2]C)([CH2]C)[O]C(=O)c1cccc(OC)c1 : 15 µM

Turning now to a further molecule:
Which measured GI50 value corresponds to Nc1ccccc1C#C/C=C\C#Cc1cnccn1 ?
1.36 µM

* * *

# Test system: A549 NSCLC
# Assay notes: NCI tumour cell line growth inhibition, 48 h
Overview of reported TGI across a group of compounds:

C[C@]12CC[C@H](O)CC1=CC[C@@H]1C2CC[C@]2(C)c3n[nH]nc3CC12 (stereo partly drawn) : > 100 µM
CCC1CC(C)C(O)/C=C/C=C/CC(C)OC(=O)CC(O)C(OC)C1OC1OC(C)CC(O)(C(C)=O)C1O (stereo not drawn) : > 100 µM
CCCSc1ccc2nc(NC(=O)OC)[nH]c2c1 : > 100 µM
CC1=NCC[N+]1(CCc1ccccc1)Cc1ccccc1 (stereo not drawn) : > 100 µM
COc1cc(C(=O)c2c(-c3ccccc3)oc3c(OC)cccc23)cc(OC)c1O : > 100 µM
CCOC(=O)C(C(CC(=O)OC)NC(=O)OCc1ccccc1)C1(C)OCCO1 (stereo not drawn) : > 100 µM
Nc1nc2[nH]c(=O)cnc2c(=O)[nH]1 : > 125 µM
Nc1ccccc1C#C/C=C\C#Cc1cnccn1 : > 100 µM
O=C1NC2c3c(I)sc(I)c3/C(=N\O)C2O1 (stereo not drawn) : > 100 µM
Brc1ccc(SCN(CSc2ccc(Br)cc2)Cc2ccccc2)cc1 : 11 µM

Which measured TGI value corresponds to CCOC(=O)NC(=O)c1cn(CCCOC(=O)CCCCCCCCC(=O)OCCCn2cc(C(=O)NC(=O)OCC)c(=O)n(C)c2=O)c(=O)n(C)c1=O ?
> 100 µM

Which measured TGI value corresponds to Oc1ccc(Nc2nc3ccccc3c3occc23)cc1 ?
52.1 µM

Which measured TGI value corresponds to N#C/C(C(=O)Nc1ccccc1)=C(/N)N1CCCC1 ?
> 100 µM
